# Experimental Target: Cry2 PHR (L348F)-p65AD-NLSx2 fusion construct as released from the TetR (I194T, 1-206)-CIB1 (-NLS)-T2A-Cry2 PHR (L348F)-p65AD-NLSx2 fusion construct
# Sequence (Q96524 other isoform, or with tags, fused parts or gaps L348F I194T L348F L348F I194T L348F): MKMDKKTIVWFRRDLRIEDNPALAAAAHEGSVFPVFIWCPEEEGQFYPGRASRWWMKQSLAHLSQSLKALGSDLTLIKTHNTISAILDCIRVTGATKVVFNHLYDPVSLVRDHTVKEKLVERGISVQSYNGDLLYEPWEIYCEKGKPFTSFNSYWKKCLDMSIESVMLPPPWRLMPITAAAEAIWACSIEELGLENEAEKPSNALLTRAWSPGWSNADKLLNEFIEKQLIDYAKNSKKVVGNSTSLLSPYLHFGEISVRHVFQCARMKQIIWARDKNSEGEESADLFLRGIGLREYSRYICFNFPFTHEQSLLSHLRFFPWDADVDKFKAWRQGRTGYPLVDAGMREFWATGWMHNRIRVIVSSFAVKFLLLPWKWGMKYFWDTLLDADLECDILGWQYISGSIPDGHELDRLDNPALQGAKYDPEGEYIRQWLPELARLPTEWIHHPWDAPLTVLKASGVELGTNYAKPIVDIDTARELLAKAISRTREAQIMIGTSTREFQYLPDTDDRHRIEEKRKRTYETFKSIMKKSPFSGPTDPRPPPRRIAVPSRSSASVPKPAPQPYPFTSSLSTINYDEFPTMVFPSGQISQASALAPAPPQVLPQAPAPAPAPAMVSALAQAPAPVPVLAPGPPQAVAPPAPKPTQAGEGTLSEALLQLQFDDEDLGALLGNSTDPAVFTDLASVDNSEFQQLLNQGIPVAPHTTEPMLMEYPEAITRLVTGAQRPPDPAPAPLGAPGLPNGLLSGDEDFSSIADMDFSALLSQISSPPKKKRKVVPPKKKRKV
# Test Summary: cell-based or functional assay
Property Measured: Ub-ELuc luciferase, Light, Dox 75 ng/mL (relative)

{"columns": ["Binder", "Measured Result"],
 "data": [
  ["TetR (I194T, H100Y, 1-206)-CIB1 (-NLS) from the T2A construct (protein, part only, T2A residues at C-terminus) MARLDKSKVINSALELLNEVGIEGLTTRKLAQKLGVEQPTLYWHVKNKRALLDALAIEMLDRHHTHFCPLEGESWQDFLRNNAKSFRCALLSHRDGAKVYLGTRPTEKQYETLENQLAFLCQQGFSLENALYALSAVGHFTLGCVLEDQEHQVAKEERETPTTDSMPPLLRQAIELFDHQGAEPAFLFGLELITCGLEKQLKCESGSPKKKHMEFNGAIGGDLLLNFPDMSVLERQRAHLKYLNPTFDSPLAGFFADSSMITGGEMDSYLSTAGLNLPMMYGETTVEGDSRLSISPETTLGTGNFKAAKFDTETKDCNEAAKKMTMNRDDLVEEGEEEKSKITEQNNGSTKSIKKMKHKAKKEENNFSNDSSKVTKELEKTDYI", 41.4],
  ["rTetR (I194T, V10 mutation, 1-206)-CIB1 (-NLS) from the T2A construct (protein, part only; not given: Leftover T2A residues, part only) chain, part: MARLDKSKVINSALELLNGVGIEGLTTRKLAQKLGVEQPTLYWHVKNKRALLDALPIEMLDRHHTHSCPLEGESWQDFLRNNAKSYRCALLSHRDGAKVHLGTRPTEKQYETLENQLAFLCQQGFSLENALYALSAVGHFTLGCVLEEQEHQVAKEERETPTTDSMPPLLKQAIELFDRQGAEPAFLFGLELITCGLEKQLKCESGSPKKKHMEFNGAIGGDLLLNFPDMSVLERQRAHLKYLNPTFDSPLAGFFADSSMITGGEMDSYLSTAGLNLPMMYGETTVEGDSRLSISPETTLGTGNFKAAKFDTETKDCNEAAKKMTMNRDDLVEEGEEEKSKITEQNNGSTKSIKKMKHKAKKEENNFSNDSSKVTKELEKTDYI", 51.7]
]}
